These measurements were taken from patent US8148372B2.

target_entity: human mGluR2 (Homo sapiens, UniProt Q14416)
Construct: membranes
Sequence (Q14416 19-872): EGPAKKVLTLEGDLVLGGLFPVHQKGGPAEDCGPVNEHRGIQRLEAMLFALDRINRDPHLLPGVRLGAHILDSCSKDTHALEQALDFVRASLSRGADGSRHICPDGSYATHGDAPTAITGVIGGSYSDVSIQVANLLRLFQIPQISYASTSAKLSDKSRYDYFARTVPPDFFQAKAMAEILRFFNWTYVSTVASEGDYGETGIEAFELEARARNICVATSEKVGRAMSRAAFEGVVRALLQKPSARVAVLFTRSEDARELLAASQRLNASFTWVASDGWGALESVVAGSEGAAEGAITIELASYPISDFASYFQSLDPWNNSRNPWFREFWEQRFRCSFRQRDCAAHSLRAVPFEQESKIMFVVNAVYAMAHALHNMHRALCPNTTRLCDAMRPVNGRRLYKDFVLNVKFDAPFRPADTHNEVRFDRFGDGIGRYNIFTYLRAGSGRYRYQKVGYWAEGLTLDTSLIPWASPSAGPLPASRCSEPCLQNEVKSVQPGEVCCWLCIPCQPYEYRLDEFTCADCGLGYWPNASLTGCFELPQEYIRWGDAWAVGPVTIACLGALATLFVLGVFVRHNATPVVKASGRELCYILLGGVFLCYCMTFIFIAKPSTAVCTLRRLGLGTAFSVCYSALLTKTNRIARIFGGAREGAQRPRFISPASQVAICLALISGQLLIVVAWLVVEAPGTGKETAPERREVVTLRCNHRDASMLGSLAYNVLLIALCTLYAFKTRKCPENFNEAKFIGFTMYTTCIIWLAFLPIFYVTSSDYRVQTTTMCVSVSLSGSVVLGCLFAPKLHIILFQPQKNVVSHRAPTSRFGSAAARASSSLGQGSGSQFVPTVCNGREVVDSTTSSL
protocol_summary: [35S]-GTPγS binding assay, membranes from CHO cells stably expressing human mGluR2
setup_conditions: allosteric activator activity in presence of 1 μM glutamate; CHO membranes, human mGluR2; read-out: Hu GTPgS EC50
assay_readout: EC50 (µM)

Prompt line: Requested read-out: EC50. Entry: `CNC(=O)c1cc(-c2cc(C)c3c(c2)CN([C@@H](C)C2CC2)C3=O)on1`
Response line: 0.51

Prompt line: Same question, `CC(C)N1Cc2cc(-c3cc(C(=O)N4CCOCC4)no3)cc(Cl)c2C1=O` this time
Response line: 0.53

Prompt line: Same question, `C[C@H](N1Cc2cc(-c3cc(C(=O)N(C)C)no3)cc(Cl)c2C1=O)C(F)(F)F` this time
Response line: 0.084

Prompt line: Same question, `Cc1cc(-c2cc(C(=O)N(C)C)no2)cc2c1C(=O)N([C@@H](C)C(F)(F)F)C2` this time
Response line: 0.066

A. Cc1cc(-c2cc(C(=O)N(C)C)no2)cc2c1C(=O)N([C@@H](C)C1CC1)C2
B. Cc1cc(-c2cc(C(=O)N(C)C)no2)cc2c1C(=O)N(C(C)C)C2
Prompt line: Which is greater in EC50, the first item A or the second item B ? // respond with label for picked entry
Response line: B
(B: 0.425 µM, A: 0.115 µM)

1. C[C@@H](C1CC1)N1Cc2cc(-c3cc(C(=O)N4CCOCC4)no3)cc(Cl)c2C1=O
2. CC(C)N(C)C(=O)c1cc(-c2cc(Cl)c3c(c2)CN([C@@H](C)C2CC2)C3=O)on1
Prompt line: Which is greater in EC50, the first item 1 or the second item 2 ? // respond with label for picked entry
Response line: 1

1. CC(C)N1Cc2cc(-c3cc(C(=O)N4CCCC4)no3)cc(Cl)c2C1=O
2. C[C@H](N1Cc2cc(-c3cc(C(=O)N4CCOCC4)no3)cc(Cl)c2C1=O)C(F)(F)F
Prompt line: Identify the item whose EC50 is the smaller number: 1 or 2 // respond with label for picked entry
Response line: 1

1. CC(C)N1Cc2cc(-c3cc(C(=O)N(C)CCO)no3)cc(Cl)c2C1=O
2. CC(C)N1Cc2cc(-c3cc(C(N)=O)no3)cc(Cl)c2C1=O
3. C[C@@H](C1CC1)N1Cc2cc(-c3cc(C(=O)N(C)C)no3)cc(Cl)c2C1=O
4. Cc1cc(-c2cc(C(=O)N(C)C(C)C)no2)cc2c1C(=O)N([C@@H](C)C1CC1)C2
Prompt line: With regard to EC50, arrange the entries in ascending order, please. Please write the labels in the order that was asked for.
Response line: 4, 3, 2, 1
(4: 0.036 µM, 3: 0.064 µM, 2: 0.214 µM, 1: 0.618 µM)

A. Cc1cc(-c2cc(C(=O)N(C)CCO)no2)cc2c1C(=O)N([C@@H](C)C1CC1)C2
B. CC(C)N1Cc2cc(-c3cc(C(=O)NC4CCCC4)no3)cc(Cl)c2C1=O
C. Cc1cc(-c2cc(C(N)=O)no2)cc2c1C(=O)N([C@@H](C)C1CC1)C2
Prompt line: Arrange by EC50, high to low. Please write the labels in the order that was asked for.
Response line: A, C, B
(A: 0.479 µM, C: 0.15 µM, B: 0.06 µM)

A. Cc1cc(-c2cc(C(=O)N3CCNCC3)no2)cc2c1C(=O)N([C@@H](C)C1CC1)C2
B. C[C@@H](C1CC1)N1Cc2cc(-c3cc(C(N)=O)no3)cc(Cl)c2C1=O
C. C[C@@H](C1CC1)N1Cc2cc(-c3cc(C(=O)N(C)CCO)no3)cc(Cl)c2C1=O
Prompt line: With regard to EC50, arrange the entries in ascending order, please. Please write the labels in the order that was asked for.
Response line: B, C, A
(B: 0.23 µM, C: 0.443 µM, A: 0.664 µM)
